FYI, the data here is from PubChem BioAssay AID1986.

Experiment: inhibitors of HIV fusion peptide binding, primary screen, biochemical, uHTS, fluorescence dequenching (AID 1986)
Conditions: cell-free peptide binding, 30 min, at 20 µM, hits give high values
Hit rate of the full screen: of about 290,000 compounds, about 890 (0.31%) were called active. Many of the other results were omitted from the sample, so actives are more common in it than they were.
Quantity name: inhibition (%)
Report the figure in % without appending any unit label.

O=C(O)C(Cc1ccccc1)N1C(=O)CCC1=O (stereo not drawn) = -1.2
CCOC(=O)C1Nc2ccc(Br)cc2C2C=CCC12 (stereo not drawn) = 34.6

The recorded inhibition for entry `COc1ccc(CNC(=O)/C=C/c2ccc(S(=O)(=O)NCc3ccco3)cc2)cc1OC` equals 0.9

* * *

Assay: inhibitors of HIV fusion peptide binding, primary screen, biochemical, uHTS, fluorescence dequenching (AID 1986)
Details: cell-free peptide binding, 30 min, at 20 µM
The campaign covered roughly 290,000 compounds. About 890 (0.31%) were called active. Cut-off read from the data, not from the text of the source: active = inhibition mostly above about 52% (no sharp cut-off); inactive = mostly below about 76%. This excerpt belongs to a sample that is enriched for actives.
Give your call using only these classes: Y for active, N for inactive

O=C(O)COc1ccccc1C(Nc1ccccn1)c1cc(Cl)c2cccnc2c1O (centres undefined) = Y
CCNC(=O)COc1ccc(OCc2ccccc2)cc1 = N
COc1cc(/C=C2\C(=O)ON=C2c2ccccc2)cc(OC)c1OC = N

Inquiry: Look up the recorded call for `CC(C)[C@@H]1NC(=O)N(c2ccc(Oc3ccccc3)cc2)C1=O` in this test.
Reply text: N

Inquiry: Look up the recorded call for `Cc1ccn2c(Nc3ccc4c(c3)OCO4)c(-c3ccccn3)nc2c1` in this test.
Reply text: Y

Inquiry: Look up the recorded call for `Cc1ccn2c(Nc3ccccc3)c(-c3ccccn3)nc2c1` in this test.
Reply text: N

Inquiry: Look up the recorded call for Oc1c(C(Nc2ccccn2)c2cccnc2)cc(Cl)c2cccnc12 (centres undefined) in this test.
Reply text: N

Inquiry: Look up the recorded call for `CC(=O)Nc1cccc(NC(=O)CSc2ncc(-c3ccccc3)[nH]2)c1` in this test.
Reply text: N

Inquiry: Look up the recorded call for `CC(=O)NS(=O)(=O)c1ccc(N=c2ssc3c2-c2cc(C)c(C)cc2NC3(C)C)cc1` in this test.
Reply text: N

* * *

Test: inhibitors of HIV fusion peptide binding, primary screen, biochemical, uHTS, fluorescence dequenching (AID 1986)
Settings: cell-free peptide binding, 30 min, at 20 µM, hits give high values
Hit rate of the full screen: of about 290,000 compounds, about 890 (0.31%) were called active. The sample holds actives, similar compounds and a random draw of the others, so the mix is not that of the screen.
Quantity name: inhibition (%)
Report the figure in % without appending any unit label.

Cc1cc(/C=C2\SC(=S)N(Cc3ccco3)C2=O)c(C)n1-c1ccccc1 = 43.7
CS(=O)(=O)C1=NSC2=NC(=O)/C(=C\c3cccn3-c3ccccc3Cl)C(=N)N21 = 78.5
c1cc(CNc2ccc3c(c2)OCO3)ccn1 = 4.7
NC(=O)CSc1nc(C23CC4CC(CC(C4)C2)C3)nc2ccccc12 = -1.1
Cc1cc2nc(-c3ccc(SCc4ccc(C#N)cc4)nc3)[nH]c2cc1C = 8.6
CS(=O)(=O)C1=NSC2=NC(=O)/C(=C\c3ccc(-c4ccccc4)o3)C(=N)N21 = 34.9
Cc1ccc(-n2cccc2/C=C2/C(=N)N3C(=NC2=O)SN=C3S(C)(=O)=O)cc1 = 77.1
CCCCC/S(CC1CC1(Cl)Cl)=N\S(=O)(=O)c1ccc(C)cc1 (stereo not drawn) = 0.9

The recorded inhibition for entry CC(=O)NN1C(=O)c2ccccc2NC1c1ccc(N(C)C)cc1 (stereo not drawn) equals -0.9

The recorded inhibition for entry `CC(C)CC1=C/C(=C/c2ccc(-c3ccccc3)o2)C(=O)O1` equals 51.7

* * *

Assay: inhibitors of HIV fusion peptide binding, primary screen, biochemical, uHTS, fluorescence dequenching (AID 1986)
Settings: cell-free peptide binding, 30 min, at 20 µM, hits give high values
Screen size: about 290,000 compounds; about 890 (0.31%) were called active. The sample as a whole holds a higher share of actives than the screen did.
Quantity name: inhibition (%)
Report the figure in % without appending any unit label.

CCOc1cc2c(cc1C=O)OC(C)C2 (configuration not stated) = 0.9
CCOc1ccc2nc(NC(=O)CSc3ccc(Cl)cc3)sc2c1 = -1.6
COc1cc(/C=C2\SC(=Nc3ccccc3)NC2=O)cc(Cl)c1O = 90
CC1=C(C#N)C(=O)NC(=O)/C1=C/c1ccc(-c2ccc(S(N)(=O)=O)cc2)o1 = 46.5
N#Cc1c(-c2ccccc2)nc(SCC(=O)Nc2ccccc2F)[nH]c1=O = 14.2
O=C1N=C(N2CCN(c3ccccc3)CC2)S/C1=C\c1ccco1 = 0.9
S=c1[nH]nc(C2CCCCC2)o1 = 0.3
COc1cc(/C=C2/SC(=Nc3ccc(O)cc3)NC2=O)cc(OC)c1O = -2.4
COc1ccccc1NS(=O)(=O)c1cccc(NC(=O)Nc2ccccc2)c1 = 1.4
CCOC(=O)CC1C(=O)NCCN1c1nc2c(C)cccn2c(=O)c1/C=C1\SC(=S)N(C(C)CC)C1=O (configuration not stated) = 137

The recorded inhibition for entry `O=C(Nc1cc(S(=O)(=O)N2CCCCC2)ccc1O)c1ccccc1NS(=O)(=O)c1ccc(F)cc1` equals 49.5

The recorded inhibition for entry `Cc1cc2nc3s/c(=C/c4ccc(-c5ccccc5C(=O)O)o4)c(=O)n3c2cc1C` equals 116

The recorded inhibition for entry `COc1ccc(-c2csc(NC(=O)c3ccccc3S(C)(=O)=O)n2)cc1` equals 0.4

The recorded inhibition for entry `N#Cc1c(-c2ccccc2)nc(SCC(=O)Nc2ccccc2)[nH]c1=O` equals 22

The recorded inhibition for entry CCCN1C(=O)/C(=C/c2c(N3CCNC(=O)C3CC(=O)OCC)nc3c(C)cccn3c2=O)SC1=S (configuration not stated) equals 146

The recorded inhibition for entry `COc1ccccc1N=C1NC(=O)/C(=C/c2ccc(N(C)C)cc2)S1` equals 52.4

The recorded inhibition for entry `Cc1cc(C)c2nc(N3CCC(C(=O)NCCCN4CCCC4=O)CC3)sc2c1` equals -0.6

The recorded inhibition for entry `CCCCCCCCn1ccc(=N)cc1` equals -1.2

* * *

Measured inhibition of individual entries
Test: inhibitors of HIV fusion peptide binding, primary screen, biochemical, uHTS, fluorescence dequenching (AID 1986)
Conditions: cell-free peptide binding, 30 min, at 20 µM, hits give high values
Out of some 290,000 compounds screened, about 890 (0.31%) were called active. This is one part of a sample in which actives are shown more often than they occur.
Report the figure in % without appending any unit label.

The recorded inhibition for entry CCn1cc(C(=O)N2CCCC2)c(=O)c2cc(S(=O)(=O)N3CC(C)CC(C)C3)ccc21 (stereo unspecified) equals 1.1

The recorded inhibition for entry CCOC(=O)c1ccc2c(c1)C1C=CCC1C(C(=O)O)N2 (stereo unspecified) equals 66.5

The recorded inhibition for entry `Cc1ccc(/C=C2/SC(=S)N(C3CCCCC3)C2=O)o1` equals 32.1

The recorded inhibition for entry `Cc1cc2nc3c(=O)n(C4CCCCC4)c(=O)[nH]c3nc2cc1N` equals 66.8

The recorded inhibition for entry `Cc1oc2cc([N+](=O)[O-])c(O)c([N+](=O)[O-])c2c1C(=O)c1ccc(Br)cc1` equals 51

The recorded inhibition for entry `COc1ccc(C(=O)NNC(=O)Cc2ccc(Cl)cc2)cc1` equals 0.6

* * *

Test: inhibitors of HIV fusion peptide binding, primary screen, biochemical, uHTS, fluorescence dequenching (AID 1986)
Settings: cell-free peptide binding, 30 min, at 20 µM
Screen size: about 290,000 compounds; about 890 (0.31%) were called active. No stated cut-off is given here; in the data, active means inhibition mostly above about 52% (no sharp cut-off); inactive means mostly below about 76%. The sample holds actives, similar compounds and a random draw of the others, so the mix is not that of the screen.
Give your call using only these classes: active, inactive

Consider the following illustrative entries.
COc1ccc(C(=O)N/N=C(\C)c2ccc3c(c2)C2C=CCC2C(c2ccccc2)N3)cc1 (centres undefined) = inactive
O=C(/C=C/c1ccc(OCCCF)cc1)NCc1ccc(Cl)c(Cl)c1 = inactive
O=C1C(=Cc2cccn2-c2ccccc2)C(=O)c2ccccc21 = inactive
Cc1c(C)n(Cc2ccc(F)cc2)c2ccc(C(=O)NCCN3CCOCC3)cc12 = inactive
Nc1c(C(=O)NC2CC2)sc2nc3c(c(-c4ccco4)c12)CC/C3=C/c1ccco1 = inactive

Inquiry: Look up the recorded call for `COc1ccc(-c2nc(N3CCCCCC3)sc2C(=O)c2ccccc2)cc1` in this test.
Reply text: inactive

Inquiry: Look up the recorded call for `Nc1ccc(Cc2ccc(N)c(C(=O)O)c2)cc1C(=O)O` in this test.
Reply text: inactive

Inquiry: Look up the recorded call for `Cc1cc(Cc2ccc(N)c(C)c2)ccc1N` in this test.
Reply text: inactive

Inquiry: Look up the recorded call for `Nc1ccc(Cc2ccc(N)c(O)c2)cc1O` in this test.
Reply text: active
